Test: in vivo
Conditions: mouse, in vivo, po, (b) = 5Iodouracil, (b)/(a) mol ratio 1
MEASURED ATTRIBUTE: LD50 at 504 h (mg/kg)

{"columns": ["COMPOUND", "MEASURED ATTRIBUTE", "UNIT", "VALUE OBSERVED"],
 "data": [
  ["O=c1[nH]cc(F)c(=O)n1C1CCCO1 (stereo not shown) [Compound 6, 3-(2-Tetrahydrofuryl)-5-fluorouracil]", "LD50 at 504 h", "mg/kg", 467]
]}

====

Assay: in vivo
Details: mouse, in vivo, po, (b) = 5Iodouracil, (b)/(a) mol ratio 5
MEASURED ATTRIBUTE: LD50 at 504 h (mg/kg)

{"columns": ["MOLECULE", "VALUE OBSERVED"],
 "data": [
  ["O=c1[nH]cc(F)c(=O)n1C1CCCO1 (stereo not shown) [Compound 6, 3-(2-Tetrahydrofuryl)-5-fluorouracil]", 194]
]}
